Measured EC50 (Toll-like receptor 7 (Homo sapiens, UniProt Q9NYK1))
# output: number + unit

// known answers, use as guide
CC(C)Cn1cnc2c(N)nc3ccccc3c21 ... 2120 nM
C=CCCc1nc2c(N)nc3ccccc3c2n1Cc1ccccc1 ... 262 nM

Entry CCCCCCCc1nc2c(N)nc3ccccc3c2n1Cc1ccccc1 : EC50 on Toll-like receptor 7 (Homo sapiens, UniProt Q9NYK1) = 822 nM

Entry CCN(CCC#N)Cc1nc2c(N)nc3ccccc3c2n1CC(C)(C)O : EC50 on Toll-like receptor 7 (Homo sapiens, UniProt Q9NYK1) = 8390 nM

Entry CCCCc1nc2c(NN)nc3ccccc3c2n1Cc1ccccc1 : EC50 on Toll-like receptor 7 (Homo sapiens, UniProt Q9NYK1) = 873 nM

Entry CCCCCCCCCc1nc2c(N)nc3ccccc3c2n1Cc1ccccc1 : EC50 on Toll-like receptor 7 (Homo sapiens, UniProt Q9NYK1) = 3350 nM
